system: NCI/ADR-RES ovarian; assay: NCI tumour cell line growth inhibition, 48 h; in the data active means GI50 below about 0.43 µM; inactive means the rest
Thanks in advance; please answer with one of these: active, inactive

What was the test verdict on `COc1ccc(C)c2sc(N(Cc3cccnc3)C(=O)c3ccc(C#N)cc3)nc12` ?
inactive

Lab log entry: `OCc1ccc(-c2nc(-c3ccc4c(c3)OCO4)c(-c3ccccn3)[nH]2)cc1` — outcome as called in the assay?
inactive

Name the outcome recorded for `O=C1OC2(c3ccc(O)cc3Oc3cc(O)ccc32)c2cccc3cccc1c23` in the assay.
inactive

Recorded test call requested for `COC(=O)[C@H](Cc1cn(C)cn1)NC(=O)[C@H](CC(C)C)NC(=O)Nc1cc(C(F)(F)F)cc(C(F)(F)F)c1`
inactive

Recorded test call requested for `Cn1cnc([N+](=O)[O-])c1S(=O)(=O)Oc1ccc(Cl)cc1`
inactive

GET /call?item= `COc1cc2c(/C=C3\C(=O)N(C)c4ccccc43)c[nH]c2cc1C` returns the recorded outcome of this test.
inactive

Field: outcome | Entry: NC(=O)c1cn(C2CC(O)C(CO)O2)c2ncnc(N)c12 (centres undefined)
inactive

Write down the call the test reported for this compound. Item: `CCN1/C(=C/C(C)=C/c2sc3ccc4ccccc4c3[n+]2CC)Sc2ccc3ccccc3c21`
inactive

# fetch the recorded call for `COc1cc2c(cc1OC)[C@@H]1C(=O)c3ccc4c(c3O[C@@H]1CO2)C[C@H](C(C)C)O4` here
active

###

tested on: RPMI-8226 leukemia; experiment: NCI tumour cell line growth inhibition, 48 h; in the data active means GI50 below about 0.43 µM; inactive means the rest
Choose the fitting class; nothing outside y (active), n (inactive) is accepted.

Smiles Record | Group
ClCc1ccccc1Cn1cnc2nc(Cl)nc(Cl)c21 | y
COc1cc2c(cc1OC)[C@@H]1C(=O)c3ccc4c(c3O[C@@H]1CO2)C[C@H](C(C)C)O4 | y
COc1cccc(/C=N\NC(=O)c2ccncc2)c1O | n

What was the test verdict on `COC(=O)[C@H](Cc1cn(C)cn1)NC(=O)[C@H](CC(C)C)NC(=O)Nc1cc(C(F)(F)F)cc(C(F)(F)F)c1` ?
n

# outcome recorded in this test, key = `O=C(Nc1ccc(I)cc1F)c1cc(Br)ccc1O`
y

Write down the call the test reported for this compound. Item: `CCCCCSc1ccc2nc(NC(=O)OCC)sc2c1`
n

###

test system: UO-31 renal; test: NCI tumour cell line growth inhibition, 48 h
Readout Type: GI50

Some solved entries appear below for comparison.
Compound | Result Value
COc1cccc2c1C(=O)c1c(O)c3c(c(O)c1C2=O)C[C@](O)(C(=O)CO)C[C@H]3O[C@@H]1C[C@@H](NC(=O)CCCN(C)C2(c3ccc(F)cc3)CC3CCC2C3)[C@H](O)[C@@H](C)O1 (stereo partly specified) | 6.23 µM
Clc1cc(Br)ccc1-c1ccc(CNCC2CCNCC2)o1 | 1.66 µM
COc1ccc(-c2cnc(-c3ccc(OC)cc3)n2-c2cc(OC)c(OC)c(OC)c2)cc1 | 18.2 µM

Record `ClCc1ccccc1Cn1cnc2nc(Cl)nc(Cl)c21` , field GI50: 1.26 µM

Record `CN1CCN(C)C1c1ccc(C2N(C)CCN2C)cc1` , field GI50: > 100 µM

Given item `COc1cc(-n2cc(-c3ccc(Cl)cc3)n(-c3ccccc3)c2=O)cc(OC)c1OC` , the value recorded as its GI50 is 16.6 µM

`CCOc1ccc(-c2nc3ccc(-c4nc5ccc(N6CCN(C)CC6)cc5[nH]4)cc3[nH]2)cc1` yielded GI50 of 2.54 µM

Field GI50 (entry `Cc1cccc2c(=O)c3c(sc12)c(NCCCNCCO)nc1ccccc13` ) reads 1.19 µM
